# Tested on: barnyardgrass (Echinochloa crus-galli L.): ECHCG
# protocol-notes: Test Example 1 pre-emergence herbicidal activity, ECHCG
# Assay type: in vivo
# test-parameters: Rate 63 g a.i./ha, visually observed 20th to 23rd day after application
measured-property: Pre-emergence Herbicidal Activity ECHCG (growth controlling degree) (%)
// note: answer is a bare numeric in %

Record excerpt, results attached:
query_smiles=COc1c(Cl)cc(F)c(-c2nn(C)c(OC(F)F)c2Cl)c1N units_text=% recorded_measurement=98
query_smiles=COc1c(Cl)cc(F)c(-c2nn(C)c(OC(F)F)c2Cl)c1NC(=O)OCC(C)C units_text=% recorded_measurement=40
query_smiles=COc1c(Cl)cc(F)c(-c2nn(C)c(OC(F)F)c2Cl)c1NC(=O)C(C)C units_text=% recorded_measurement=100
query_smiles=CCCOC(=O)Nc1c(OC)c(Cl)cc(F)c1-c1nn(C)c(OC(F)F)c1Cl units_text=% recorded_measurement=98

Now let's try a different one.
Provide only the value of recorded Pre-emergence Herbicidal Activity ECHCG (growth controlling degree) for `COc1c(Cl)cc(F)c(-c2nn(C)c(OC(F)F)c2Cl)c1NC(=O)c1cccc(C(F)(F)F)c1` 0
